molecular target: Beta-lactamase (Pseudomonas aeruginosa (strain ATCC 15692 / PAO1 / 1C / PRS 101 / LMG12228)); assay: Inhibition of AmpC in Pseudomonas aeruginosa CL5701 assessed as concentration required to reduce the imipenen MIC from 32 ug/ml to 4 ug/ml by in vitro synergy assay
VALUE TYPE: Activity (µM)
Reply with just the number (in µM).

Known Activity results, listed for orientation:
CN(C)CCCCCNC(=O)N1CC[C@@H]2[C@H]1C(=O)N2S(=O)(=O)O : 100
CN(C)CCCNC(=O)N1CC[C@@H]2[C@H]1C(=O)N2S(=O)(=O)O : 25
O=C(N[C@H]1CCCN(CCCO)CC1)N1CC[C@@H]2[C@H]1C(=O)N2S(=O)(=O)O : 50
CN(C)CCN1CCC[C@H](NC(=O)N2CC[C@@H]3[C@H]2C(=O)N3S(=O)(=O)O)CC1 : 100
O=C(N[C@H]1CCCN(CCO)CC1)N1CC[C@@H]2[C@H]1C(=O)N2S(=O)(=O)O : 25
CN(C)CCCCNC(=O)N1CC[C@@H]2[C@H]1C(=O)N2S(=O)(=O)O : 25

Shifting focus to the compound that follows.
Item `C[N+]1(C)CCC[C@H](NC(=O)N2CC[C@@H]3[C@H]2C(=O)N3S(=O)(=O)[O-])CC1` : provide Activity
50

###

molecular target: Beta-lactamase (Pseudomonas aeruginosa (strain ATCC 15692 / PAO1 / 1C / PRS 101 / LMG12228)); experiment: Inhibition of AmpC in Pseudomonas aeruginosa CL5701 assessed as concentration required to reduce the imipenen MIC from 32 ug/ml to 4 ug/ml by in vitro synergy assay
VALUE TYPE: Activity (µM)
Reply with just the number (in µM).

Known Activity results, listed for orientation:
NCCN1CCC[C@H](NC(=O)N2CC[C@@H]3[C@H]2C(=O)N3S(=O)(=O)O)CC1 : 25
CNCCCNC(=O)N1CC[C@@H]2[C@H]1C(=O)N2S(=O)(=O)O : 50
CN1CCC[C@H](NC(=O)N2CC[C@@H]3[C@H]2C(=O)N3S(=O)(=O)O)CC1 : 25

Shifting focus to the compound that follows.
Item `CNCCCCNC(=O)N1CC[C@@H]2[C@H]1C(=O)N2S(=O)(=O)O` : provide Activity
25

###

biological target: Beta-lactamase (Pseudomonas aeruginosa (strain ATCC 15692 / PAO1 / 1C / PRS 101 / LMG12228), UniProt P24735); assay: Inhibition of Pseudomonas aeruginosa CL5701 AmpC by spectrophotometric assay
Sequence (P24735 whole entry): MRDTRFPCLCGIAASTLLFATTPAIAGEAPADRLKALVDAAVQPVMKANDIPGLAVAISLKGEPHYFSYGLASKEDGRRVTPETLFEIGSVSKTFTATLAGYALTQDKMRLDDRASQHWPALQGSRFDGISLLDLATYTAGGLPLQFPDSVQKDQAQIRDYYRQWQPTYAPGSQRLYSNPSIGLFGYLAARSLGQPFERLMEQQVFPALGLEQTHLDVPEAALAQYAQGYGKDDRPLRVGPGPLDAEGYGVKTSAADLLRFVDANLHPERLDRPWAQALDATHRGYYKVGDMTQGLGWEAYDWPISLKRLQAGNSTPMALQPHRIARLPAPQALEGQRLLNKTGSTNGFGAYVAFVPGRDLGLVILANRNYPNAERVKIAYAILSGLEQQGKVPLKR
VALUE TYPE: pIC50
Entry type: numeric. Quantity: pIC50, the -log10 of concentration in molar units.

Known pIC50 results, listed for orientation:
NC(=O)N1CC[C@@H]2[C@H]1C(=O)N2S(=O)(=O)O : 4.80
C[N+]1(C)CCC[C@H](NC(=O)N2CC[C@@H]3[C@H]2C(=O)N3S(=O)(=O)[O-])CC1 : 5.82
CNCCCNC(=O)N1CC[C@@H]2[C@H]1C(=O)N2S(=O)(=O)O : 5.28
CN(C)CCCCCNC(=O)N1CC[C@@H]2[C@H]1C(=O)N2S(=O)(=O)O : 5.72
NCCN1CCC[C@H](NC(=O)N2CC[C@@H]3[C@H]2C(=O)N3S(=O)(=O)O)CC1 : 6.22

Item `O=C(N[C@H]1CCCN(CCCO)CC1)N1CC[C@@H]2[C@H]1C(=O)N2S(=O)(=O)O` : provide pIC50
5.96

Item `CN(C)CCN1CCC[C@H](NC(=O)N2CC[C@@H]3[C@H]2C(=O)N3S(=O)(=O)O)CC1` : provide pIC50
6.05

Item `CN1CCC[C@H](NC(=O)N2CC[C@@H]3[C@H]2C(=O)N3S(=O)(=O)O)CC1` : provide pIC50
5.59

Item `CN(C)CCCCNC(=O)N1CC[C@@H]2[C@H]1C(=O)N2S(=O)(=O)O` : provide pIC50
5.80

Item `CC(C)NC(=O)N1CC[C@@H]2[C@H]1C(=O)N2S(=O)(=O)O` : provide pIC50
5.74

###

target: Beta-lactamase (Pseudomonas aeruginosa (strain ATCC 15692 / PAO1 / 1C / PRS 101 / LMG12228)); assay: Inhibition of Pseudomonas aeruginosa CL5701 AmpC by spectrophotometric assay
// reported IC50 for each item listed
Reply with just the number (in nM).

Known IC50 results, listed for orientation:
CN(C)CCCNC(=O)N1CC[C@@H]2[C@H]1C(=O)N2S(=O)(=O)O : 2100
CNCCCCNC(=O)N1CC[C@@H]2[C@H]1C(=O)N2S(=O)(=O)O : 3500

Shifting focus to the molecule that follows.
Item `O=C(N[C@H]1CCCN(CCO)CC1)N1CC[C@@H]2[C@H]1C(=O)N2S(=O)(=O)O` : provide IC50
900

Origin of measurements: ChEMBL document CHEMBL1799948
